Assay: qHTS assay to identify small molecule antagonists of the sonic hedgehog signaling (Shh) pathway - cell viability counter screen (AID 1259367); note: nearly all actives have a fitted effect of over 55% in size
Conditions: NIH/3T3 Gli1-Luc viability, CellTiter-Fluor, 24 h; series mostly up to 92.4 µM
Description: National Center for Advancing Translational Sciences [NCATS] NIH Chemical Genomics Center [NCGC] U.S. Environmental Protection Agency [EPA] National Institutes of Environmental Health Sciences [NIEHS] National Toxicology Program [NTP] U.S. Food and Drug Administration [FDA] The sonic hedgehog (Shh) pathway is essential for normal embryonic development. Dysregulation of the Shh pathway can cause severe developmental defects in organs. […]
Results filed as inconclusive are left out. Calls of active or inactive are those of the source. Calls come from the whole dose curve; as a rule, active = well fitted cell-killing curve with a large enough effect in the repeat runs; inconclusive = weak or mixed curves, or effect the other way; inactive = no such curve, though single readings can be large or run the other way.
Reply using exactly one outcome from true for active, false for inactive

Give the logged outcome of this assay for the following compound: "CCCC(=O)OC(=O)CCC"
false

Give the logged outcome of this assay for the following compound: O=C(NC(Cc1cc(=O)[nH]c2ccccc12)C(=O)O)c1ccc(Cl)cc1 (stereo unspecified)
false

Give the logged outcome of this assay for the following compound: "CN=C(N)NC(=O)Nc1c(C)cccc1C"
false

Give the logged outcome of this assay for the following compound: COc1ccc(-n2nc(C(F)F)cc2-c2ccc(S(C)=O)cc2)cc1 (stereo unspecified)
false

Give the logged outcome of this assay for the following compound: "CC(C)OC(=O)c1ccccc1C(=O)OC(C)C"
false

Give the logged outcome of this assay for the following compound: "CCN(CC)c1cccc(O)c1"
false

Give the logged outcome of this assay for the following compound: "CCN(Cc1cccc(S(=O)(=O)O)c1)c1ccc(C(=C2C=CC(=[N+](CC)Cc3cccc(S(=O)(=O)O)c3)C=C2)c2ccc(O)cc2S(=O)(=O)[O-])cc1"
true

Give the logged outcome of this assay for the following compound: CC1C(C)(C)C2=C(C(=O)CCC2)C1(C)C (stereo unspecified)
false

Give the logged outcome of this assay for the following compound: "O=C1CC[C@@H](C(=O)O)N1"
false

Give the logged outcome of this assay for the following compound: CCCCCCCCCCCCCC(=O)OCC(O)CO (stereo unspecified)
false

Give the logged outcome of this assay for the following compound: "Cc1ccc(NC(=O)N(C)C)cc1NC(=O)N(C)C"
false

Give the logged outcome of this assay for the following compound: "C1CCCCC1"
false

Give the logged outcome of this assay for the following compound: "O=C(c1ccccc1)c1ccc(O)cc1"
true

Give the logged outcome of this assay for the following compound: "CC(=O)OCC1=C(C(=O)O)N2C(=O)[C@@H](NC(=O)CSc3ccncc3)[C@H]2SC1"
false

Give the logged outcome of this assay for the following compound: "NC(=O)c1ccccc1[N+](=O)[O-]"
false

Give the logged outcome of this assay for the following compound: "Cc1ccccc1S(N)(=O)=O"
false

Give the logged outcome of this assay for the following compound: "CCOC(=O)c1ccc(NC(=O)CN2CCCCC2)cc1"
false

Give the logged outcome of this assay for the following compound: "Cc1ccc2c(c1[N+](=O)[O-])C(=O)c1ccccc1C2=O"
false

Give the logged outcome of this assay for the following compound: "CCN(CC)C(=O)N1CCN(C)CC1"
false

Give the logged outcome of this assay for the following compound: "O=C(C(=O)c1ccco1)c1ccco1"
false

Give the logged outcome of this assay for the following compound: "CCN(CC)CCOc1ccccc1C(=O)CCc1ccccc1"
false

Give the logged outcome of this assay for the following compound: "Cc1cn([C@H]2C[C@H](F)[C@@H](CO)O2)c(=O)[nH]c1=O"
false

Give the logged outcome of this assay for the following compound: CCCCCCCCCCCCCCCCCC(=O)OCC(CC)CCCC (stereo unspecified)
false

Give the logged outcome of this assay for the following compound: "CC[C@@H](CO)NCCN[C@@H](CC)CO"
false

Give the logged outcome of this assay for the following compound: CC(C)(C)NCC(O)COc1cccc2c1C[C@H](O)[C@H](O)C2 (stereo partly specified)
false

Give the logged outcome of this assay for the following compound: "CCc1ccc(C)cc1"
false
